Molecular target: NPC1-like intracellular cholesterol transporter 1 (Homo sapiens) (UniProt Q9UHC9)
Sequence (whole entry): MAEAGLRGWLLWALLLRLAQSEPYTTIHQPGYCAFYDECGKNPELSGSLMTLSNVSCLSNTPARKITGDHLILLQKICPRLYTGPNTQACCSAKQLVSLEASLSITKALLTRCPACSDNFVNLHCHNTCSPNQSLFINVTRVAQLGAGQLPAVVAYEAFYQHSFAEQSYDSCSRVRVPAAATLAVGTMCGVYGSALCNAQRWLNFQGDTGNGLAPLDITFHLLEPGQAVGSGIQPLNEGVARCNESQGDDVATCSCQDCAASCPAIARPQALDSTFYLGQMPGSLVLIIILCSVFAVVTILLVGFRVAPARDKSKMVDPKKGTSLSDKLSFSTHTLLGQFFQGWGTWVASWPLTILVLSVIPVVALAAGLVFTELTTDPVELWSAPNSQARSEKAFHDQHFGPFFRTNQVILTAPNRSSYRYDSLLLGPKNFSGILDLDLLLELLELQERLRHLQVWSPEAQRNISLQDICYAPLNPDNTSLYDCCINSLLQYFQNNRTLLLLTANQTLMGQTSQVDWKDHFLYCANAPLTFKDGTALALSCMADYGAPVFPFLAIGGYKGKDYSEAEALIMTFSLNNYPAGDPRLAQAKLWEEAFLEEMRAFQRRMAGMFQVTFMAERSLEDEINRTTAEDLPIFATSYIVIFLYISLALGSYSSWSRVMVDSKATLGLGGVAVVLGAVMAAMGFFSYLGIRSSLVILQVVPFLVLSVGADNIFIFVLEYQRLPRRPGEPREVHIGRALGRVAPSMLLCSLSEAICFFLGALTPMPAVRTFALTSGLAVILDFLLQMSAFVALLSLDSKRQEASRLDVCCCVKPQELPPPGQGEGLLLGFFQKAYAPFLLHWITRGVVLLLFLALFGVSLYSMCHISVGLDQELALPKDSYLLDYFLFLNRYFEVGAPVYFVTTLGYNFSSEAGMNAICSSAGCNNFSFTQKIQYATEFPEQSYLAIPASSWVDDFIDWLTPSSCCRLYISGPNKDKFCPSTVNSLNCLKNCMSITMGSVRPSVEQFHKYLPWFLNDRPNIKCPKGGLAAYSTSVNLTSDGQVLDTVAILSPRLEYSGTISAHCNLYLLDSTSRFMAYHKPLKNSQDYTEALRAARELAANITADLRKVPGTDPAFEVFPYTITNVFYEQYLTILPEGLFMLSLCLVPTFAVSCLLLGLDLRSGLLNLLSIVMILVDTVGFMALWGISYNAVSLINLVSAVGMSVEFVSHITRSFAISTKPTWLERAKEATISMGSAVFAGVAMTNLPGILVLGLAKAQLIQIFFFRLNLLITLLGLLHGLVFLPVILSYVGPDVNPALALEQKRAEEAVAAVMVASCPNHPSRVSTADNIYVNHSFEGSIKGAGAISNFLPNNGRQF
Experiment: Binding affinity to human GFP-tagged NPC1L1 L1072T/L1168I mutant expressed in HEK293 cells assessed as localization to plasma membrane at 10 uM after 24 hrs by fluorescence microscopic analysis
Type: cell-based
reportedProperty: Activity (%)

Exam item: Identify measured Activity associated with CCCCn1c(=O)c2ccccc2c2cc(C(=O)NC(C)C)ccc21
Marked response: 0

Exam item: Identify measured Activity associated with CCCCn1c(=O)c2ccccc2c2cc(C(=O)N3CCCCC3)ccc21
Marked response: 0

Exam item: Identify measured Activity associated with CCCCn1c(=O)c2c(c3cc(C(=O)NC)ccc31)CCCCC2
Marked response: 0

Exam item: Identify measured Activity associated with CCCCn1c(=O)c2c(c3cc(C(=O)N(CC)CC)ccc31)CCCCC2
Marked response: 14

Exam item: Identify measured Activity associated with CCN(C(=O)c1ccc2c(c1)c1c(c(=O)n2Cc2ccccc2)CCCCC1)C1CC1
Marked response: 0

[P] CCCCN(CCCC)C(=O)c1ccc2c(c1)c1ccccc1c(=O)n2CCCC
[Q] CCCCn1c(=O)c2c(c3cc(C(=O)N(CC)CC)ccc31)CCCCCC2
[R] CCN(C(=O)c1ccc2c(c1)c1c(c(=O)n2C(C)C)CCCCC1)C1CC1
Exam item: Task field, ranking: reported Activity, descending order. Could you list the labels in the order requested?
Marked response: P, Q, R

[P] CCCCn1c(=O)c2ccccc2c2cc(C(=O)NC3CC3)ccc21
[Q] CCCCn1c(=O)c2c(c3cc(C(=O)NC4CCCC4)ccc31)CCCCC2
Exam item: Sorting ascending by Activity, which comes first: P or Q ? Your answer should be the label attached to the chosen record.
Marked response: Q
(Q: 6%, P: 14%)

* * *

Molecular target: NPC1-like intracellular cholesterol transporter 1 (Homo sapiens)
Sequence (whole entry): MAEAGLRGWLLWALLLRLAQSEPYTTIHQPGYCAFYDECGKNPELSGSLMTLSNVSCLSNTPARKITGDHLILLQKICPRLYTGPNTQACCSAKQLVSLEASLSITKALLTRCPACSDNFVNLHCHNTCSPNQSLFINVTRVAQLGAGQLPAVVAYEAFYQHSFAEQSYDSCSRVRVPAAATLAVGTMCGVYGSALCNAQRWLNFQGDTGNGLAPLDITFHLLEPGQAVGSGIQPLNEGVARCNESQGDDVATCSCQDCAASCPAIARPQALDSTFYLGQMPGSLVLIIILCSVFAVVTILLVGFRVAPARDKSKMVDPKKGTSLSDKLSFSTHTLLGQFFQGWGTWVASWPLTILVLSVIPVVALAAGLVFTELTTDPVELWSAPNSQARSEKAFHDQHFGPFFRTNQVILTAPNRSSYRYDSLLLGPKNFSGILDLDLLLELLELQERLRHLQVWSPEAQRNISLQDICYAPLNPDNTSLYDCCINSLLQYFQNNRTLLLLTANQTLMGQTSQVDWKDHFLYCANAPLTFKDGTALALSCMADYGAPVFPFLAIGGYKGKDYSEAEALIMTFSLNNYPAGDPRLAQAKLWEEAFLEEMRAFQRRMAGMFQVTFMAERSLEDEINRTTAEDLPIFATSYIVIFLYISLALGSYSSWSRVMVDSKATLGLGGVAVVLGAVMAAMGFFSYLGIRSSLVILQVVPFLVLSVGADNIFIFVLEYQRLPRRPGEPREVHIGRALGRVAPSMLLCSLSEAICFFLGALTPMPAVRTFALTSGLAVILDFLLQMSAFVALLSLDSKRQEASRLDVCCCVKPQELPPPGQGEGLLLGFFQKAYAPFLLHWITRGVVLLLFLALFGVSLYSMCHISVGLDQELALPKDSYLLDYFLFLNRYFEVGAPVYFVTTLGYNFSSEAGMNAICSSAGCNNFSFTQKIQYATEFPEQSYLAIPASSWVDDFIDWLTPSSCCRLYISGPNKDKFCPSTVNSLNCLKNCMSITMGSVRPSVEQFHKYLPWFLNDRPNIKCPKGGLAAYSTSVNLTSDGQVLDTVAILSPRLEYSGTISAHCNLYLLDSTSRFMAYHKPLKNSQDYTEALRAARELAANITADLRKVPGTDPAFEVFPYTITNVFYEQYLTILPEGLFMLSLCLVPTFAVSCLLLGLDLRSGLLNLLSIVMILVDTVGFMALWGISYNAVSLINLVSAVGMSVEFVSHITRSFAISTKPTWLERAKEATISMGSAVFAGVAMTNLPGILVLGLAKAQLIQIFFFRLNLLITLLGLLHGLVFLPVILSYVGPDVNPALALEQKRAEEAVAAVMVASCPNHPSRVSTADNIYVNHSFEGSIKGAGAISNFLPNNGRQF
Experiment: Binding affinity to human GFP-tagged NPC1L1 L1072T/L1168I mutant expressed in HEK293 cells assessed as localization to plasma membrane at 30 uM after 24 hrs by fluorescence microscopic analysis
Format: cell-based
reportedProperty: Activity (%)

Some solved entries appear below for comparison.
Exam item: Identify measured Activity associated with CCN(C(=O)c1ccc2c(c1)c1c(c(=O)n2Cc2ccccc2)CCCCC1)C1CC1
Marked response: 14

Exam item: Identify measured Activity associated with CCCCn1c(=O)c2c(c3cc(C(=O)NC4CCCCC4)ccc31)CCCCC2
Marked response: 5

Exam item: Identify measured Activity associated with CCCCn1c(=O)c2c(c3cc(C(=O)NC4CC4)ccc31)CCCCC2
Marked response: 49

Exam item: Identify measured Activity associated with CCN(CC)C(=O)c1ccc2c(c1)c1ccccc1c(=O)n2Cc1ccccc1
Marked response: 0

Exam item: Identify measured Activity associated with CCCCn1c(=O)c2c(c3cc(C(N)=O)ccc31)CCCCC2
Marked response: 0

Exam item: Identify measured Activity associated with CCCCn1c(=O)c2ccccc2c2cc(C(=O)N(CC)CC)ccc21
Marked response: 45

[I] CCN(CC)C(=O)c1ccc2c(c1)c1ccccc1c(=O)n2CC
[II] CCCCn1c(=O)c2ccccc2c2cc(C(N)=O)ccc21
Exam item: Sorting ascending by Activity, which comes first: I or II ? Your answer should be the label attached to the chosen record.
Marked response: II

* * *

Molecular target: NPC1-like intracellular cholesterol transporter 1 (Homo sapiens)
Sequence (whole entry): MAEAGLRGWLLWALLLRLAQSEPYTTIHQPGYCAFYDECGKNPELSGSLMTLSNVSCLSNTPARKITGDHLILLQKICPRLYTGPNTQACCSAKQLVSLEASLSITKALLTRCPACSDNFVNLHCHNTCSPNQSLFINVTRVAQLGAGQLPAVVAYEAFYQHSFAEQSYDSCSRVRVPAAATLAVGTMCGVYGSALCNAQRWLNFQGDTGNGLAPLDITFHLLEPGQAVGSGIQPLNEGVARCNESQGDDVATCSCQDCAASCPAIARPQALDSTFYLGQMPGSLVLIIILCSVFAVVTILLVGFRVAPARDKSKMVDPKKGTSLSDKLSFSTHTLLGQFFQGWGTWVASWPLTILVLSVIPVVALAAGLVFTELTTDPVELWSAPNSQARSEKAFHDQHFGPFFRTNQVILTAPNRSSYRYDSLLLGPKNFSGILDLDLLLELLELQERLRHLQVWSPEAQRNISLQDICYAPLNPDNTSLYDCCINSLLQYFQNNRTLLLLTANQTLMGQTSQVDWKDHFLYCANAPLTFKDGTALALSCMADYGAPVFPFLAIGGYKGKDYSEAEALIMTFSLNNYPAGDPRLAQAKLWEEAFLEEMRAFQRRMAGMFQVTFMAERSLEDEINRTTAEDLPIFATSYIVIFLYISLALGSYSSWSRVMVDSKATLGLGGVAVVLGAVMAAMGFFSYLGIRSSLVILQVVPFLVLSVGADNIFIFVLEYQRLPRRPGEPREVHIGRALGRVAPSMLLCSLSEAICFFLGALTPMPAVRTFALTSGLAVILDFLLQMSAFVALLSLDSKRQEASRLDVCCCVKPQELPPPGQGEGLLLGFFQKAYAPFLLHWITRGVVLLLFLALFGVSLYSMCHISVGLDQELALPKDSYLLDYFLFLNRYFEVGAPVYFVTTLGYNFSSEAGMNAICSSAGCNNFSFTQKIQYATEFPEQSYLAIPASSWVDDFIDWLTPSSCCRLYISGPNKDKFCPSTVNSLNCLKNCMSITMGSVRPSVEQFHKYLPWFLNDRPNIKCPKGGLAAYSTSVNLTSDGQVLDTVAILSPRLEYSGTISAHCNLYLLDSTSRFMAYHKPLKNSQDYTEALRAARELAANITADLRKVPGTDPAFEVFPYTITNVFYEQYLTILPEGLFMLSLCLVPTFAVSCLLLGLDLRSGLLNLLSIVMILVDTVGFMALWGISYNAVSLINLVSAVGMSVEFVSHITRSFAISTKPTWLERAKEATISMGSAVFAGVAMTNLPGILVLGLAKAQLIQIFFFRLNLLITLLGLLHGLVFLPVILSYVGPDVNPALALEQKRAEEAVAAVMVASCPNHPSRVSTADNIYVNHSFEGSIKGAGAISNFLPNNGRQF
Assay: Binding affinity to human GFP-tagged NPC1L1 L1072T/L1168I mutant expressed in HEK293 cells assessed as localization to plasma membrane at 30 uM after 24 hrs by fluorescence microscopic analysis
Assay type: cell-based
reportedProperty: Activity (%)

Exam item: Identify measured Activity associated with CCCCn1c(=O)c2c(c3cc(C(=O)N(CC)C4CC4)ccc31)CCCCC2
Marked response: 45

Exam item: Identify measured Activity associated with CCN(C(=O)c1ccc2c(c1)c1c(c(=O)n2CCOC)CCCCC1)C1CC1
Marked response: 0

Exam item: Identify measured Activity associated with CCCCn1c(=O)c2ccccc2c2cc(C(=O)NC(C)(C)C)ccc21
Marked response: 41

[P] CCCCn1c(=O)c2ccccc2c2cc(C(=O)NC3CCCC3)ccc21
[Q] CCCCn1c(=O)c2c(c3cc(C(=O)NC(C)C)ccc31)CCCCC2
[R] CCCCn1c(=O)c2c(c3cc(C(=O)N(CC)CC)ccc31)CCCCC2
[S] CCCCn1c(=O)c2c(c3cc(C(=O)N(CC)CC)ccc31)CCC2
Exam item: Number of molecules to sort: 4. Sort criterion: Activity, ascending. Could you list the labels in the order requested?
Marked response: P, S, Q, R

Values compiled from ChEMBL document CHEMBL3297646.
